- System: K4 kissing-loop RNA reporter;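 also: bound reporter read as fluorescence of individual clusters on recovered sequencing chips by microscopy, with normalized cluster intensities fitted with a binding model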
- TEST NAME: apparent KD of K4 kissing-loop reporter; higher = weaker reporter binding
- EXPERIMENTAL CONTEXT: Eterna round: R107; input ligand: none
Short version: apparent KD of K4 kissing-loop reporter at least 0.2 µM is Y, less is N.

| RECORD SEQUENCE | ASSIGNED CATEGORY |
| --- | --- |
| GUGGGCUCGGGAGGAUAUGAGUCUAGUGAUGUUAGGCGGUCCAUGCGCGUGGCGCGUUAUGCCCUUUUAGAAGGCCCGAGCCCUC [#2 Exclusion - FMN B Attempt #24 (HarryS)] | N |
| UUCAGUGACAUACGAGUGAUGUUCGUAAUACGAGGACCGGUACGGCCGCCACUCGCACGUCGGCAGUUUGUUCAUGCAUCAGACU | Y |
| GCCGUAGAUUGAAGGAGCGCCUUCUUACCAAGAGUGAUGUUCUUUGGUACCAUGUUCAGCAGGCAGGUAGGUCGCAAUCUACGGC | N |
| AUUUUUUUGUCAGGAUAUUAGUAUGCGUUUGGUUUGUUAGUGAUGUUGAUAUUUUGUUUAUGUAUUUAAGAAGGGAUUUAGCGGU [yyitemullin] | Y |
| AUAUAGAGUGAUGUUCAUGAGUAUUUCGAAGGAGCGCUAAAUAAGGCAGGUAGGUCGCGGAAAAUAUAUAUAUAGAUAUAUAUAU [KL-SSArg-A29] | Y |
| GCCGUACGCAUGGAUACCAGAUCUAGACGCUUAGUGAUGUUAAGUAAUCUGGUUAGACCGAUCCCUUGGCAGCCAUGCGUACGGC | Y |

Source listed as the supplement of paper PMC9170038.
